These records show Ki for Sodium-dependent dopamine transporter (Rattus norvegicus, UniProt P23977).
quantity: Ki (µM)

[a] C[C@H](Nc1nc(-c2ccccc2)nc2ccccc12)c1ccccc1
[b] CN1CCC(Oc2nc(-c3ccccc3)nc3ccccc23)CC1
[c] C[C@@H](Nc1nc(-c2ccccc2)nc2ccccc12)c1ccccc1
[ask] Order the 3 compounds from highest to lowest Ki. Output the labels ranked as instructed.
[reply] b, c, a

====

Parameter 'readout' = pKi; parameter 'system' = Sodium-dependent serotonin transporter (Rattus norvegicus, UniProt P31652).
Sequence (P31652 whole entry): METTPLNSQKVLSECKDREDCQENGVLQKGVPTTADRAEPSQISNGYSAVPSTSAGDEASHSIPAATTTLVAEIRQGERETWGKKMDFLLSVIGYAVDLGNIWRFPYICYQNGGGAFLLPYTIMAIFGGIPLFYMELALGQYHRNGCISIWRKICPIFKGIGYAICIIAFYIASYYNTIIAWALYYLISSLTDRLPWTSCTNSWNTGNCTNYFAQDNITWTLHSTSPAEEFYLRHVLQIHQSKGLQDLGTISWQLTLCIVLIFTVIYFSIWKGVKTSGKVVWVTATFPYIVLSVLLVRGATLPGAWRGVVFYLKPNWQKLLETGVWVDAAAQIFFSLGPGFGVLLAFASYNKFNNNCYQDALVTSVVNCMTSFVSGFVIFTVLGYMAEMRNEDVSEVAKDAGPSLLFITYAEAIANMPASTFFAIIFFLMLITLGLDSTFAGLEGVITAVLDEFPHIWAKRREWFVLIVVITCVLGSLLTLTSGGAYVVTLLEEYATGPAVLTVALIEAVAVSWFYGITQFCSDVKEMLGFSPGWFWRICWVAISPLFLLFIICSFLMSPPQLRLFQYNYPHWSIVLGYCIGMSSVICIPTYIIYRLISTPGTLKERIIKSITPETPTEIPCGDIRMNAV
pKi: −log10 of the molar value.

Illustrative cases are given below, each with its answer.
molecule	quantity	reported
c1ccc(-c2nc(NC(c3ccccc3)c3ccccc3)c3ccccc3n2)cc1	pKi	< 5.00
CN1CCC(Oc2nc(-c3ccccc3)nc3ccccc23)CC1	pKi	< 5.00
c1ccc(-c2nc(SC(c3ccccc3)c3ccccc3)c3ccccc3n2)cc1	pKi	< 5.00
CN(C)CCCSc1nc(-c2ccccc2)nc2ccccc12	pKi	5.02
CN1C2CCC1CC(Oc1nc(-c3ccccc3)nc3ccccc13)C2 (stereo not given)	pKi	5.29
c1ccc(CNc2nc(-c3ccccc3)nc3ccccc23)cc1	pKi	< 5.00
c1ccc(-c2nc(NCC(c3ccccc3)c3ccccc3)c3ccccc3n2)cc1	pKi	< 5.00
C[C@H](Nc1nc(-c2ccccc2)nc2ccccc12)c1ccccc1	pKi	< 5.00
CN(C)CCCOc1nc(-c2ccccc2)nc2ccccc12	pKi	< 5.00

Continue with the next molecule.
[ask] Endpoint output: pKi of `c1ccc(-c2nc(NCCC(c3ccccc3)c3ccccc3)c3ccccc3n2)cc1` . Value?
[reply] < 5.00
